target of assay: CYP2C9 (Homo sapiens, UniProt P11712)
Sequence (P11712 whole entry): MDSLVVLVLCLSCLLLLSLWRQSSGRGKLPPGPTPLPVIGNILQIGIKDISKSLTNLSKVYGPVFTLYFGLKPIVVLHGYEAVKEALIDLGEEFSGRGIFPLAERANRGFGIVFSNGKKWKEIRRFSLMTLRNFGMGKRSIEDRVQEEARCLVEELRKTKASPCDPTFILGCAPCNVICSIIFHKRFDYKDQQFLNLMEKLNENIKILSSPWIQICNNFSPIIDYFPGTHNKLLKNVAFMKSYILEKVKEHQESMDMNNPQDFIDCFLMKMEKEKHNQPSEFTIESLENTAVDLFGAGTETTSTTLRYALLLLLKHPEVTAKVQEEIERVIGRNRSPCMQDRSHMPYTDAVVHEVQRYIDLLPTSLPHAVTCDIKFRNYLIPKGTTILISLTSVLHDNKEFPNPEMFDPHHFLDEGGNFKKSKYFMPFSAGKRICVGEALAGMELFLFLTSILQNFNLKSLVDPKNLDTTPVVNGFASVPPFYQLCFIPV
experiment: Effect of POH on fimasartan (FMS) metabolism in pooled HLMs: CYP2C9-mediated hydroxy butyl FMS formation
Format: in vitro ADME
protocol conditions: IC50 against formation of 4-hydroxy butyl FMS, pooled HLMs; FMS 30 μM; 10 min; 95% CI in parentheses

| compound | IC50 / µM |
| --- | --- |
| C=C(C)[C@@H]1CC=C(CO)CC1 [(−)-POH, (−)-perillyl alcohol] | 63 |

---

target of assay: CYP2A6 (Homo sapiens)
Sequence (P11509 whole entry): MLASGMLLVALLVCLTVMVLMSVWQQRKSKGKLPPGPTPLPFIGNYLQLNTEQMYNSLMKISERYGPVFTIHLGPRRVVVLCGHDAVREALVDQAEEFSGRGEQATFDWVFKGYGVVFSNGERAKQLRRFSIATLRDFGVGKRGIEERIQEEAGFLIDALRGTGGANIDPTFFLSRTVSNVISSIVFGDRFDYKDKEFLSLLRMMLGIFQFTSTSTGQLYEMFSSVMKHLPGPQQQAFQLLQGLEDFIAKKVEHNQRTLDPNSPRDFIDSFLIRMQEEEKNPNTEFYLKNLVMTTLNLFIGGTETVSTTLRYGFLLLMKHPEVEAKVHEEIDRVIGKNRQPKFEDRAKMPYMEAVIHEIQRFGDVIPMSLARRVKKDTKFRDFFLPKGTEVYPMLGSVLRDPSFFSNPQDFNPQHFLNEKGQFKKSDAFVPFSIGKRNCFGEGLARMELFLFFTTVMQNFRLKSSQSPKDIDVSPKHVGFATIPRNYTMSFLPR
experiment: Metabolism-dependent inhibition assay (IC50 shift) in pooled HLMs, CYP2A6
protocol conditions: read-out: IC50, pre-incubation with NADPH, CYP2A6; pooled HLMs; 30 min pre-incubation with NADPH; substrate coumarin; 95% CI in parentheses

| compound | IC50 / µM |
| --- | --- |
| C=C(C)C1CC=C(C=O)CC1 (single isomer, unassigned; (-)) [(−)-PAH, (−)-Perillaldehyde] | 7.99 |

---

target of assay: CYP2B6 (Homo sapiens, UniProt P20813)
Sequence (P20813 whole entry): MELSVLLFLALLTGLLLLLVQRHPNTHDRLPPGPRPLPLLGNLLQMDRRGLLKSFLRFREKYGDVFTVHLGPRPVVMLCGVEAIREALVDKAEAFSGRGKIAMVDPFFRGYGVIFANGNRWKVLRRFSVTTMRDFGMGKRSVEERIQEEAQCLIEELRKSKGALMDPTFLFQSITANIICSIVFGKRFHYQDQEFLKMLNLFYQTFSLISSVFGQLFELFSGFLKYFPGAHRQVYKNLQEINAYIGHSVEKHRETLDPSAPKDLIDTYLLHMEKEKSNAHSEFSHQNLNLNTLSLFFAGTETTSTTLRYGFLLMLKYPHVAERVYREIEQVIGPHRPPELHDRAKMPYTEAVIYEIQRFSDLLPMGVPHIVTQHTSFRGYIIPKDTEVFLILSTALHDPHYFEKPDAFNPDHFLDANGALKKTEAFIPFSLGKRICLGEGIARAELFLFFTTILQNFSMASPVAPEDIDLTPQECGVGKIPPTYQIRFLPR
experiment: Metabolism-dependent inhibition assay (IC50 shift) in pooled HLMs, CYP2B6
protocol conditions: IC50, pre-incubation without NADPH, CYP2B6, pooled HLMs; 30 min pre-incubation without NADPH; substrate bupropion; 95% CI in parentheses
quantity name: IC50 (µM)

| molecule | reading unit | data value |
| --- | --- | --- |
| C=C(C)[C@@H]1CC=C(CO)CC1 [(−)-POH, (−)-perillyl alcohol] | µM | 13.7 |
